biological target: T1, HLA-DR7 molecule (DRB1*0701) (human); assay: competitive ELISA, tracer YKL
T1 construct: HLA class II heterodimer
REPORTED ENDPOINT: pIC50
Reminder that pIC50 means the negative base-10 logarithm of the concentration expressed in mol/L.

Consider the following illustrative entries.
1. LSVKKQFEELTLGEF (synthetic 15-mer) [survivin peptide 87-101]; 6.15
2. LTLGEFLKLDRERAK (synthetic 15-mer) [survivin peptide 96-110]; 5.25
3. CAFLSVKKQFEELTL (synthetic 15-mer) [survivin peptide 84-98]; 6.75

Turning now to a further record.
stdin: Tell me measured pIC50 for FEELTLGEFLKLDRE (synthetic 15-mer) [survivin peptide 93-107] please.
stdout: 5.55
